Test system: M14 melanoma
assay procedure: NCI tumour cell line growth inhibition, 48 h
reported property: TGI (µM)
# unit: µM | format: bare number

Answered examples (3):
| compound | units text | value |
| --- | --- | --- |
| O=C(NCCCN(CCCCN(CCCNC(=O)C(F)(F)F)Cc1ccc2ccccc2c1)Cc1ccc2ccccc2c1)C(F)(F)F | µM | 4.54 |
| CCCc1cc(=O)n2c(C(=O)Nc3ccc(Cl)cc3C)c(C(=O)Nc3ccc(F)cc3)sc2n1 | µM | 23.7 |
| O=C(Nc1cc(Nc2ncccc2-c2ncnc3nc[nH]c23)ccc1F)c1cc(C(F)(F)F)cc(C(F)(F)F)c1 | µM | 1.6 |

Return reported TGI; argument: CC(=O)N1CCN(c2ccc(OCC3COC(Cn4ccnc4)(c4ccc(Cl)cc4Cl)O3)cc2)CC1 (stereo not drawn)
52.1

----------
Test system: MCF7 breast
assay procedure: NCI tumour cell line growth inhibition, 48 h; in the data active means GI50 below about 0.43 µM; inactive means the rest
Log the outcome using a class from active, inactive

Worked examples, 2 compounds total:
| mol | target or system | group label |
| --- | --- | --- |
| COc1ccc(-c2nccn2-c2ccc(OC)cc2)cc1 | MCF7 breast | inactive |
| CCCc1cc(=O)n2c(C(=O)Nc3ccc(Cl)cc3C)c(C(=O)Nc3ccc(F)cc3)sc2n1 | MCF7 breast | inactive |

Please state the recorded outcome for this compound: Nc1cc(Br)c(-c2nnc(CCC(=O)c3nc4ccccc4[nH]3)o2)c(Br)c1
inactive

Would you mind doing COc1cc2c(/C=N\N=C(N)N)c[nH]c2cc1C as well?
inactive

Would you mind doing Cc1cn(-c2cc(C(=O)Nc3cccc(-n4ccc5c(NC(=O)c6ccccc6)nccc54)c3)cc(C(F)(F)F)c2)cn1 as well?
active

Would you mind doing O=C(Nc1cc(Nc2ncccc2-c2ncnc3nc[nH]c23)ccc1F)c1cc(C(F)(F)F)cc(C(F)(F)F)c1 as well?
inactive

Would you mind doing COc1cc2cc(Oc3ccc(NC(=O)c4cc(C(F)(F)F)cc(C(F)(F)F)c4)cc3)c(C)nc2cc1OC as well?
inactive

Would you mind doing O=C(/C(=C\c1c(-c2ccccc2)[nH]c2ccccc12)S(=O)(=O)c1ccccc1)c1ccccc1 as well?
inactive

Would you mind doing COc1cc(/C=C\c2cc(OC)c(OC)c(OC)c2)cc(N/C=C\C(=O)c2c[nH]c3ccccc23)c1OC as well?
inactive

Would you mind doing N#CCCN1C/C(=C/c2ccc(Br)cc2)C(=O)/C(=C/c2ccc(Br)cc2)C1 as well?
inactive

Would you mind doing COc1cc2c(Nc3cc(Cl)c(OC)c(Cl)c3)c(C#N)cnc2cc1OCCCN1CCN(C)CC1 as well?
inactive

Would you mind doing CN(C)C(=S)SSC(=S)N(C)C as well?
inactive

----------
TGI listing for selected molecules.
Tested on: MOLT-4 leukemia
assay procedure: NCI tumour cell line growth inhibition, 48 h

Answered examples (2):
| molecule | TGI |
| --- | --- |
| CC(C)(C)[Si](C)(C)OC1[C@@H](CNC(=O)NC(=O)CCl)O[C@@H](n2cnc3c(N)ncnc32)[C@H]1O[Si](C)(C)C(C)(C)C (stereo partly drawn) | 1.73 µM |
| CC1=C2C(=C[C@H]3[C@]4(C)CCCC(C)(C)[C@H]4CC[C@]34O[C@H]24)OC1=O | > 100 µM |

Return reported TGI; argument: Cc1cc(Nc2nc(-c3cn(-c4ccc(Cl)cc4)nn3)nc3ccccc23)n[nH]1
> 50 µM

----------
TGI listing for selected molecules.
Test system: 786-0 renal
assay procedure: NCI tumour cell line growth inhibition, 48 h

Answered examples (2):
| molecule | TGI |
| --- | --- |
| COC(=O)/C([Se]c1c(C)cc(C)cc1C)=C(/[Se]c1c(C)cc(C)cc1C)C(=O)OC | > 100 µM |
| N#CC(N=Nc1ccc(Cl)cc1)c1nc2ccccc2o1 (stereo unspecified) | > 100 µM |

Next molecule, TGI to be filled in.
Return reported TGI; argument: Cc1[nH]c2ccccc2c1C1Cc2ccccc2N1C(=O)C#Cc1ccc([N+](=O)[O-])cc1 (stereo unspecified)
> 100 µM

----------
TGI listing for selected molecules.
System: SR leukemia
assay procedure: NCI tumour cell line growth inhibition, 48 h

Answered examples (8):
| molecule | value |
| --- | --- |
| COc1ccc(-c2ccc3c(N4CCOC[C@@H]4C)nc(N4CCOC[C@@H]4C)nc3n2)cc1CO | > 100 µM |
| Nc1cc2c(cc1Br)[nH]c(=O)c1ccccc12 | 47.2 µM |
| O=c1ccn(C2OC(CO)C(P(=O)(O)O)C2O)c(=O)[nH]1 (configuration not stated) | > 100 µM |
| Cc1ccc(CC[P+](=O)CCc2ccc(C)nc2)cn1 | > 100 µM |
| N/C(=N\S(=O)(=O)c1c(C(F)(F)F)cccc1C(F)(F)F)Nc1ccc(Cl)cc1 | > 100 µM |
| NCCNCC1CCNCC1 | > 100 µM |
| O=C1Sc2ccccc2C(=O)N2CSCC12 (configuration not stated) | > 100 µM |
| Cc1cc(-c2nc3ccccc3s2)ccc1NC(=O)[C@@H](N)CCCCN | > 54.7 µM |

Return reported TGI; argument: COC(=O)/C([Se]c1c(C)cc(C)cc1C)=C(/[Se]c1c(C)cc(C)cc1C)C(=O)OC
> 100 µM

Would you mind doing CC(=O)O/N=C/c1c2ccccc2cc2ccccc12 as well?
> 100 µM

Would you mind doing COc1ccc(-c2cnnn2-c2nonc2-n2cccc2)cc1 as well?
> 60.3 µM

Would you mind doing O=C(/C=C/c1ccccc1)c1ccccc1 as well?
> 10 µM

Would you mind doing COc1ccc(C(=O)c2cc(OC)c(OC)c(OC)c2)cc1OC as well?
> 100 µM

Would you mind doing Nc1cc(Br)c(-c2nnc(CCC(=O)c3nc4ccccc4[nH]3)o2)c(Br)c1 as well?
> 100 µM

Would you mind doing CC(C)c1[nH]nc2c1N=C(c1ccccc1Cl)c1cc([N+](=O)[O-])ccc1N2 as well?
10 µM

Would you mind doing N#CC(=Nc1ccccc1N(C(=O)c1ccccc1)C(=O)c1ccccc1)c1ccccc1 as well?
24.2 µM

----------
TGI listing for selected compounds.
Test system: NCI-H226 lung
assay procedure: NCI tumour cell line growth inhibition, 48 h

Return reported TGI; argument: Cc1c(N2C(=O)C(Cl)C2c2ccc(Cl)cc2)c(=O)n(-c2ccccc2)n1C (stereo not given)
> 100 µM

Would you mind doing O=c1[nH]cnc2c1ncn2[C@@H]1C[C@@H]1CO as well?
> 100 µM

Would you mind doing CCOC(=O)NC(=O)c1cn(C2CCCCC2)c(=O)[nH]c1=O as well?
> 100 µM

Would you mind doing O=[N+]([O-])c1cccc(C2=NOC(C3CCCCC3)C2)c1 (stereo not given) as well?
> 100 µM

Would you mind doing COc1cc(-c2cc(=O)c3cc4c(=O)cc(-c5cc(OC)c(OC)c(OC)c5)oc4cc3o2)cc(OC)c1OC as well?
46.2 µM

----------
Tested on: OVCAR-5 ovarian
assay procedure: NCI tumour cell line growth inhibition, 48 h
Rule: TGI of 30 µM or more gives true; anything lower gives false.

| molecule | group label |
| --- | --- |
| Nc1ccc(-c2nc3ccccc3s2)cc1C(F)(F)F | true |
| CCC/C=C/C=C/C1CC(O)C(O)C(=O)C1CO (stereo not given) | true |
| COC(=O)/C(=N/O)C(C(=O)C=C(C)C)C(=O)C(=O)Nc1nc2ccc([N+](=O)[O-])cc2s1 (stereo not given) | true |
| CC(C)(C)[Si](C)(C)OC1[C@@H](CNC(=O)NC(=O)CCl)O[C@@H](n2cnc3c(N)ncnc32)[C@H]1O[Si](C)(C)C(C)(C)C (stereo not given in full) | false |
| O=C(c1ccco1)c1c(C(F)(F)F)n([O-])c2ccc(C(F)(F)F)cc2[n+]1=O | false |
| Nc1cc(Br)c(-c2nnc(CCC(=O)c3nc4ccccc4[nH]3)o2)c(Br)c1 | true |

Is it the case that CCCCCCCCCCNC(=O)CI has TGI reaching or exceeding 30 µM?
false

Would you mind doing COc1ccc(S(=O)(=O)N2C(=O)CCC2C(=O)NN)cc1 (stereo not given) as well?
true

Would you mind doing c1coc(-c2c3ccc(=[N+]4CCCCC4)cc-3oc3cc(N4CCCCC4)ccc23)c1 as well?
false

Would you mind doing O=[N+]([O-])c1ccc(/C=C/c2cc(-c3ccccc3)nc3ccc4ccccc4c23)cc1 as well?
true

Would you mind doing Cc1ccc(OCCOCCOCCOCCOc2ccc(C)n(O)c2=S)c(=S)n1O as well?
true

Would you mind doing O=C(Cc1ccccc1)NN1C(=O)/C(=C\c2ccccc2)SC1=Nc1ccccc1 as well?
true

Would you mind doing CCNC(=O)/C(=C/c1ccc(OC)cc1)c1cc(OC)c(OC)c(OC)c1 as well?
true

Would you mind doing COc1cc2c(/C=N\N=C(N)N)c[nH]c2cc1C as well?
true

Would you mind doing COc1cc(/C=C\c2cc(OC)c(OC)c(OC)c2)cc(N/C=C\C(=O)c2c[nH]c3ccccc23)c1OC as well?
false

Would you mind doing CC(C)=CCC/C(C)=C/COC(C)(C)C1=CCC(C)CC1 (stereo not given) (tested in a mixture with another compound) as well?
true

Would you mind doing CCOC(=O)NC(=O)c1cn(C2CCCCC2)c(=O)[nH]c1=O as well?
true

Would you mind doing Nc1cc2c(cc1Br)[nH]c(=O)c1ccccc12 as well?
true

Would you mind doing COc1ccc(CC2c3c(cc(OC)c(OC)c3OC)CCN2C)cc1OC (stereo not given) as well?
true

Would you mind doing C[C@]12CC[C@@H]3c4ccc(O)cc4CC[C@H]3[C@@H]1C/C(=C\c1ccncc1)[C@@H]2O as well?
true
